Read-out: flavin-containing dimethylaniline monooxygenases 3 (FMO3), FMO3 (gene 2328)
Experiment: LTEA_HepaRG_FMO3: Life Technologies and Expression Analysis (LTEA) Assay for flavin-containing dimethylaniline monooxygenases 3 (FMO3) using HepaRG (AID 2283453)
Conditions: mRNA level, 48 h; actives raise or lower the signal
Calls of active or inactive are those of the source. The calls were made as follows: active = hit-call score of the fitted dose curve at least 0.9, where 1 is the maximum; inactive = score below 0.9.
Write down one outcome, taken from active, inactive

Problem: Please let me know the test result on file for CC(C)(c1ccccc1)c1ccc(O)cc1 .
Result: inactive

Problem: Please let me know the test result on file for CCNc1nc(NC(C)C)nc(SC)n1 .
Result: active

Problem: Please let me know the test result on file for Cc1ccc(O)c(C)c1 .
Result: inactive

Problem: Please let me know the test result on file for O=C(O)C(F)(F)C(F)(F)C(F)(F)C(F)(F)C(F)(F)C(F)(F)C(F)(F)C(F)(F)C(F)(F)F .
Result: active

Problem: Please let me know the test result on file for CCCCCCOC(=O)c1ccccc1C(=O)OCCCCCC .
Result: inactive

Problem: Please let me know the test result on file for ClC1=C(Cl)[C@]2(Cl)[C@@H]3[C@H]4C[C@H]([C@@H]5O[C@H]45)[C@@H]3[C@@]1(Cl)C2(Cl)Cl .
Result: active

Problem: Please let me know the test result on file for C=CC(=O)NCNC(=O)C=C .
Result: inactive

Problem: Please let me know the test result on file for C=CC(N)=O .
Result: inactive

Problem: Please let me know the test result on file for Nc1ccc(-c2ccc(N)cc2)cc1 .
Result: inactive

Problem: Please let me know the test result on file for Cc1ccccc1[N+](=O)[O-] .
Result: inactive

Problem: Please let me know the test result on file for O=S(=O)(O)C(F)(F)C(F)(F)C(F)(F)C(F)(F)C(F)(F)C(F)(F)F .
Result: inactive

Problem: Please let me know the test result on file for CO/C=C(/C(=O)OC)c1ccccc1COc1cccc(C(F)(F)F)n1 .
Result: active

Problem: Please let me know the test result on file for O=C(N[C@H]1CN2CCC1CC2)c1cc2ccoc2cn1 .
Result: inactive

Problem: Please let me know the test result on file for Nn1cnnc1 .
Result: inactive

Problem: Please let me know the test result on file for Clc1ccc(C(Cl)(Cl)Cl)cc1 .
Result: inactive
